Reference source for all entries: PubChem BioAssay (EPA / NIEHS)

Read-out: Alpha-fetoprotein (AFP) gene, AFP (gene 174)
Assay: LTEA_HepaRG_AFP: Life Technologies and Expression Analysis (LTEA) Assay for Alpha-fetoprotein (AFP) gene using HepaRG (AID 2283472);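 further: AFP transcript by TaqMan qRT-PCR normalized to ACTB GAPDH and POLR2A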
Details: mRNA level, 48 h; actives raise or lower the signal
The source made the active and inactive calls. How the source made its calls: active means hit-call score of the fitted dose curve at least 0.9, where 1 is the maximum; inactive means score below 0.9.
Mark one answer only. Choices: active, inactive

[ask] What classification did `Nc1ccc(N=Nc2ccccc2)cc1` end up with in this test?
[reply] active

[ask] What classification did `O=C(Nc1ccccc1)c1ccccc1I` end up with in this test?
[reply] active

###

Read-out: Thyroid Hormone Responsive (THRSP), THRSP (gene 7069)
Assay: LTEA_HepaRG_THRSP: Life Technologies and Expression Analysis (LTEA) Assay for Thyroid Hormone Responsive (THRSP) using HepaRG (AID 2283536)
Settings: mRNA level, 48 h; actives raise or lower the signal
Calls of active or inactive are those of the source. Rule for the calls: active = hit-call score of the fitted dose curve at least 0.9, where 1 is the maximum; inactive = score below 0.9.
Mark one answer only. Choices: active, inactive

Example entries begin here.
O=Cc1ccco1 : inactive
CCOc1cccc(C2(N3CCN(c4ccccc4)CC3)CCC(C)CC2)c1 (stereo not given) : inactive
O=C(O)C1C2CCC(O2)C1C(=O)O (stereo not given) : active

[ask] What classification did `O=C(Nc1ccccc1)c1ccccc1I` end up with in this test?
[reply] active

[ask] What classification did `O=P(OCCCl)(OCCCl)OCCCl` end up with in this test?
[reply] inactive

[ask] What classification did `c1ccc2c(c1)oc1ccccc12` end up with in this test?
[reply] inactive

[ask] What classification did `Clc1ccc(C(c2ccc(Cl)cc2)C(Cl)(Cl)Cl)cc1` end up with in this test?
[reply] active

[ask] What classification did `N#CC(Br)(Br)C(N)=O` end up with in this test?
[reply] inactive

[ask] What classification did `CCCCCCCCOC(=O)c1ccc(C(=O)OCCCCCCCC)c(C(=O)OCCCCCCCC)c1` end up with in this test?
[reply] inactive

[ask] What classification did `O=[N+]([O-])C(Br)(CO)CO` end up with in this test?
[reply] inactive

[ask] What classification did `CS(=O)(=O)NC(=O)c1cc(Oc2ccc(C(F)(F)F)cc2Cl)ccc1[N+](=O)[O-]` end up with in this test?
[reply] inactive

[ask] What classification did `Clc1ccc(Cl)c(Cl)c1` end up with in this test?
[reply] inactive

[ask] What classification did `O=C(Oc1ccc(Br)cc1)N1CCN2CCC1CC2` end up with in this test?
[reply] active

[ask] What classification did `CN(C)c1ccc(C(=O)c2ccc(N(C)C)cc2)cc1` end up with in this test?
[reply] inactive

[ask] What classification did `CC(C)(OOC(C)(C)c1ccccc1)c1ccccc1` end up with in this test?
[reply] inactive

[ask] What classification did `CCCCCCCCn1sccc1=O` end up with in this test?
[reply] active
